- targetOfAssay: Protein-glutamine gamma-glutamyltransferase 2 (Cavia cutleri)
- Sequence (P08587 whole entry): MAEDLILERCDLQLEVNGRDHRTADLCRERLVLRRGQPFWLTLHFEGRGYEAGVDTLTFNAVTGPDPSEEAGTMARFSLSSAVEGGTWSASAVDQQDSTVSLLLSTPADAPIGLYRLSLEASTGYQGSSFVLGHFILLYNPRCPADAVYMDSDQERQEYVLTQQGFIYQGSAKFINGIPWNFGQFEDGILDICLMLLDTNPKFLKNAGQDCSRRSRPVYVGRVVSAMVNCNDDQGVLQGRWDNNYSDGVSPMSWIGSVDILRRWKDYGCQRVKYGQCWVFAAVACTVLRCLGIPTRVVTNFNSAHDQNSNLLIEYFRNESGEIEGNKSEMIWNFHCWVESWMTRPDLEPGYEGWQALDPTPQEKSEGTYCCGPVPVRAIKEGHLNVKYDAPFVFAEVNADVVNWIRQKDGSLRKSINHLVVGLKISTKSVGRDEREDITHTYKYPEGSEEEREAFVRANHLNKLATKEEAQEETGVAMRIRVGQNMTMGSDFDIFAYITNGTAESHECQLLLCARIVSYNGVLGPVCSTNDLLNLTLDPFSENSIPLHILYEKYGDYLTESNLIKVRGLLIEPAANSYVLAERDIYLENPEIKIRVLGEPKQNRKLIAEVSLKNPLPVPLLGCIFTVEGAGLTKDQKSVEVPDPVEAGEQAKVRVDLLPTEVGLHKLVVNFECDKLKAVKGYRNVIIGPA
- runDescription: Enzyme Inhibition Assay: For enzymology studies of these compounds, recombinant guinea pig liver TGase was expressed in Escherichia coli and effectively purified (Gillet, S. M. F. G. et al J. N., Prot. Exp. & Purif. 2004, 33, 256). […] The mode of inhibition was determined for the representative lead compound.
pIC50: −log10 of the molar value.
Listing: pIC50 of selected compounds

Ask: Query pIC50 for `O=C(/C=C/c1ccc([N+](=O)[O-])cc1)NCc1ccccc1`
Result: < 4.30

Ask: Query pIC50 for `O=C(/C=C/c1ccc([N+](=O)[O-])cc1)n1ccnc1`
Result: < 4.70
